system: SW 900; test: relative viability (nuclei count vs DMSO), 5 days (fraction); higher = more cells survive; details: first compound 0.08 µM
experimental endpoint: relative viability
Answers are plain numbers.

Recorded results for 3 compounds are shown here.
[
  {
    "compound": "CCCCCCCCCCCC1=C(O)C(=O)C=C(O)C1=O [Embelin] + N=C(N)NC(=N)NCCc1ccccc1 [Phenformin] (partner 250 µM)",
    "subject of test": "SW 900",
    "relative viability": 0.778
  },
  {
    "compound": "CCCCCCCCCCCC1=C(O)C(=O)C=C(O)C1=O [Embelin] + CCNC(=O)c1noc(-c2cc(C(C)C)c(O)cc2O)c1-c1ccc(CN2CCOCC2)cc1 [Luminespib] (partner 0.01 µM)",
    "subject of test": "SW 900",
    "relative viability": 0.196
  },
  {
    "compound": "CCCCCCCCCCCC1=C(O)C(=O)C=C(O)C1=O [Embelin] + Nc1nc2[nH]cc(CCc3ccc(C(=O)N[C@@H](CCC(=O)O)C(=O)O)cc3)c2c(=O)[nH]1 [Pemetrexed] (partner 0.2 µM)",
    "subject of test": "SW 900",
    "relative viability": 0.495
  }
]

Please supply relative viability for each of the following items, keeping them in order.
1. CCCCCCCCCCCC1=C(O)C(=O)C=C(O)C1=O [Embelin] + Nc1ncn([C@H]2C[C@H](O)[C@@H](CO)O2)c(=O)n1 [Decitabine] (partner 2 µM)
2. CCCCCCCCCCCC1=C(O)C(=O)C=C(O)C1=O [Embelin] + O=C(c1cc(Cc2n[nH]c(=O)c3ccccc23)ccc1F)N1CCN(C(=O)C2CC2)CC1 [Olaparib] (partner 8 µM)
3. CCCCCCCCCCCC1=C(O)C(=O)C=C(O)C1=O [Embelin] + O=C(CCCCCCC(=O)Nc1ccccc1)NO [Vorinostat] (partner 1 µM)

[0.449, 1, 0.604]

---

Please go through the items and note down their relative viability.
test system: NCI-H2342; test: relative viability (nuclei count vs DMSO), 5 days (fraction); higher = more cells survive; conditions: first compound 4 µM
One number for each entry.

Illustrative cases are given below, each with its answer.
[
  {
    "compound": "Clc1ccc(Nc2nnc(Cc3ccncc3)c3ccccc23)cc1 [Vatalanib] + CC(=O)c1c(C)c2cnc(Nc3ccc(N4CCNCC4)cn3)nc2n(C2CCCC2)c1=O [Palbociclib] (partner 0.5 µM)",
    "subject of test": "NCI-H2342",
    "relative viability": 0.593
  },
  {
    "compound": "C[C@@H]1CN(CC(=O)Nc2ccc3c(c2)Cc2cccc(-c4cc(=O)cc(N5CCOCC5)o4)c2S3)C[C@H](C)O1 + Cc1nc(Nc2ncc(C(=O)Nc3c(C)cccc3Cl)s2)cc(N2CCN(CCO)CC2)n1 [Dasatinib] (partner 0.075 µM)",
    "subject of test": "NCI-H2342",
    "relative viability": 0.306
  }
]

Next compound, relative viability to be filled in.
Could you share which relative viability value was measured for COc1cc(N2CCC(C(N)=O)CC2)ccc1Nc1nc(N)c(Cl)c(Nc2ccccc2S(=O)(=O)C(C)C)n1 [HG-5-88-01] + O=C(CCCCCCC(=O)Nc1ccccc1)NO [Vorinostat] (partner 1 µM) ?
0.945

---

tested on: LXF-289; test: relative viability (nuclei count vs DMSO), 5 days (fraction); higher = more cells survive; conditions: first compound 0.1265 µM
experimental endpoint: relative viability
Answers are plain numbers.

[
  {
    "compound": "COc1cc(N2CCC(C(N)=O)CC2)ccc1Nc1nc(N)c(Cl)c(Nc2ccccc2S(=O)(=O)C(C)C)n1 [HG-5-88-01] + Cc1nc(Nc2ncc(C(=O)Nc3c(C)cccc3Cl)s2)cc(N2CCN(CCO)CC2)n1 [Dasatinib] (partner 0.075 µM)",
    "subject of test": "LXF-289",
    "relative viability": 0.198
  },
  {
    "compound": "Clc1ccc(Nc2nnc(Cc3ccncc3)c3ccccc23)cc1 [Vatalanib] + O=C(CCCCCCC(=O)Nc1ccccc1)NO [Vorinostat] (partner 1 µM)",
    "subject of test": "LXF-289",
    "relative viability": 0.832
  },
  {
    "compound": "COc1cc(N2CCC(C(N)=O)CC2)ccc1Nc1nc(N)c(Cl)c(Nc2ccccc2S(=O)(=O)C(C)C)n1 [HG-5-88-01] + CC(=O)c1c(C)c2cnc(Nc3ccc(N4CCNCC4)cn3)nc2n(C2CCCC2)c1=O [Palbociclib] (partner 0.5 µM)",
    "subject of test": "LXF-289",
    "relative viability": 0.628
  }
]

Please state recorded relative viability (tested on LXF-289) of Clc1ccc(Nc2nnc(Cc3ccncc3)c3ccccc23)cc1 [Vatalanib] + COc1cccc2cc(-c3nc([C@H]4CC[C@H](C(=O)O)CC4)n4ncnc(N)c34)[nH]c12 [OSI-027] (partner 0.5 µM)
0.802
